- Recorded conditions: in water, 323.2 K
Recorded metric: solubility (mole fraction)

> print(dat)
                               given.smiles  reported.value
1  C=C(C)[C@@H]1CC[C@]2(CO)CC[C@]3(C)[C@H](CC[C@@H]4[C@@]5(C)CC[C@H](O)C(C)(C)[C@@H]5CC[C@]43C)[C@@H]12         2.5e-05

###

- Recorded conditions: in acetonitrile, 323.2 K
Recorded metric: solubility (mole fraction)

> print(dat)
                               given.smiles             recorded.metric  reported.value
1  C=C(C)[C@@H]1CC[C@]2(CO)CC[C@]3(C)[C@H](CC[C@@H]4[C@@]5(C)CC[C@H](O)C(C)(C)[C@@H]5CC[C@]43C)[C@@H]12  solubility (mole fraction)         0.00244

meta.source: BigSolDB 2.1
